assay_remarks: chemical genetic growth profiling, strain panel (AID 1159580);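 also: tested at 20 µM; growth read once vehicle control cultures reached saturation at 30 °C; 1 = growth at the plate median or of vehicle wells; lower values mean less growth of the strain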
stated_conditions: S. cerevisiae deletion strains, growth OD, locus YKL067W, strain YNK1, hits give low values
Hit rate of the full screen: of about 5,500 compounds, about 2,000 (36%) were called active. About 18% were inconclusive and are not listed. This is one part of the list.
measured_quantity: normalized growth
Please reply with the value in numeric form only.

Request: What normalized growth value was documented for this compound, `Cn1cncc1S(=O)(=O)/C(C#N)=C/c1ccccc1Sc1ccc(Cl)cc1` ?
Result: 0.854

New cases:
Request: I am curious: what normalized growth value has been reported for `O=C(C=C(O)c1ccc(Br)cc1)C(=O)Nc1ccccc1` ?
Result: 0.127

Request: Please do the same for `CC(C)(C)C1=NN(c2nc3ccc(Cl)cc3s2)C(=O)C1` as well.
Result: 0.144

Request: And the next one, `N#Cc1c(Cl)c(Cl)c(Cl)c(Cl)c1C#N` ?
Result: 0.359

Request: Again, but for `O=[N+]([O-])c1cc(C(F)(F)F)ccc1-n1ccc(-c2cccs2)n1`
Result: 0.88

Request: Moving on to the next compound: `S=C(Nc1cc(-c2cccs2)[nH]n1)Nc1ccccc1Cl`
Result: 0.835

Cited source for all entries: PubChem BioAssay AID1159580
